- target of assay: EGFR (L858R) (Homo sapiens, UniProt P00533, L858R)
- Sequence (P00533 25-1210 L858R): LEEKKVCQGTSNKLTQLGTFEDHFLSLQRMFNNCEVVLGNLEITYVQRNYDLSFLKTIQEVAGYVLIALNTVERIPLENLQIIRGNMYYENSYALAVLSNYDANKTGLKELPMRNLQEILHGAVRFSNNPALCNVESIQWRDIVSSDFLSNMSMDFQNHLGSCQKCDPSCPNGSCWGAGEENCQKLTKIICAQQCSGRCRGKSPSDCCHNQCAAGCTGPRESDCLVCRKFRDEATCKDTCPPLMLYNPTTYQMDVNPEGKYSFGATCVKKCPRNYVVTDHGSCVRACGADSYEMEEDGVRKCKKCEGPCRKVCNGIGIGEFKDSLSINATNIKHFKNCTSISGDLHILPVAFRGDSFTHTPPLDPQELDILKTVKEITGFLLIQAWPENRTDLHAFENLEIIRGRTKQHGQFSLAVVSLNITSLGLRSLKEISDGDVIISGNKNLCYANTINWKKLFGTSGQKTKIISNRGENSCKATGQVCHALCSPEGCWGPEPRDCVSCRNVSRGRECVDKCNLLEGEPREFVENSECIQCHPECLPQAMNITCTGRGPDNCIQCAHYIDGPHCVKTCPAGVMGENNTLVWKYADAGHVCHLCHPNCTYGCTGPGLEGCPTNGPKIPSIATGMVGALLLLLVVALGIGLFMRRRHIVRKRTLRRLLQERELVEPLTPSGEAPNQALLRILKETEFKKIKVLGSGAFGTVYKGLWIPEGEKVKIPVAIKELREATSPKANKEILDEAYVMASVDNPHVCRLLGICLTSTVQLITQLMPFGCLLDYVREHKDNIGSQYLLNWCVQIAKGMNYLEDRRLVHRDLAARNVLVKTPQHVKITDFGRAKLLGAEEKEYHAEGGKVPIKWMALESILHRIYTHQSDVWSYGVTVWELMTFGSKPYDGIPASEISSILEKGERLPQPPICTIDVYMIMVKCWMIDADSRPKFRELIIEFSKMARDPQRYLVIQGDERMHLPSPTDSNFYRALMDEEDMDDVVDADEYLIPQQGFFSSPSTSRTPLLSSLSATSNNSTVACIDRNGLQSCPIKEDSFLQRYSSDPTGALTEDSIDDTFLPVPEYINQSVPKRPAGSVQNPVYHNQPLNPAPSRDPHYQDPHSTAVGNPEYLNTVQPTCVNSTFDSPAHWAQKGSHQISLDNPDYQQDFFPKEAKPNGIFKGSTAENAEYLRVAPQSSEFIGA
- protocol notes: MSA (Mobility Shift Assay) kinase activity, EGFR-L858R
- Format: biochemical
Task for the reader: assign each of the following compounds its reported log10 of IC50.
All values: log10 IC50 [nM].

Please review the entries below; each comes with its answer.
compound: CC(C)c1ccc(N2CC(NC(=O)N(C)C)C2)c2cnc(Nc3ccnc(N4CCC(O)C(F)C4)n3)cc12 (stereo not shown)
target of assay: EGFR (L858R) (Homo sapiens, UniProt P00533, L858R)
log10 of IC50: 1.64
//
compound: CC(C)n1c(=O)cc(N2CC(CS(C)(=O)=O)C2)c2cnc(Nc3ccnc(N4CCC(O)CC4)n3)cc21
target of assay: EGFR (L858R) (Homo sapiens, UniProt P00533, L858R)
log10 of IC50: 1.49
//
compound: CC(C)c1ccc(N2CC(NS(=O)(=O)c3cccnc3)C2)c2cnc(Nc3ccnc(N4CCC(O)C(F)C4)n3)cc12 (stereo not shown)
target of assay: EGFR (L858R) (Homo sapiens, UniProt P00533, L858R)
log10 of IC50: 1.11
//
compound: CC(C)c1ccc(N2CC(NS(C)(=O)=O)C2)c2cnc(Nc3ccnc(N4CCC(O)C(F)C4)n3)cc12 (stereo not shown)
target of assay: EGFR (L858R) (Homo sapiens, UniProt P00533, L858R)
log10 of IC50: 0.28

Query: Provide log10 of IC50 value for the following compound: CC(C)c1ccc(N2CC(CS(C)(=O)=O)C2(C)C)c2cnc(Nc3ccnc(N4CCC(O)C(F)C4)n3)cc12 (stereo not shown)
Response: 1.83

---

- target of assay: EGFR (wild-type) (Homo sapiens, UniProt P00533)
- Sequence (P00533 25-1210): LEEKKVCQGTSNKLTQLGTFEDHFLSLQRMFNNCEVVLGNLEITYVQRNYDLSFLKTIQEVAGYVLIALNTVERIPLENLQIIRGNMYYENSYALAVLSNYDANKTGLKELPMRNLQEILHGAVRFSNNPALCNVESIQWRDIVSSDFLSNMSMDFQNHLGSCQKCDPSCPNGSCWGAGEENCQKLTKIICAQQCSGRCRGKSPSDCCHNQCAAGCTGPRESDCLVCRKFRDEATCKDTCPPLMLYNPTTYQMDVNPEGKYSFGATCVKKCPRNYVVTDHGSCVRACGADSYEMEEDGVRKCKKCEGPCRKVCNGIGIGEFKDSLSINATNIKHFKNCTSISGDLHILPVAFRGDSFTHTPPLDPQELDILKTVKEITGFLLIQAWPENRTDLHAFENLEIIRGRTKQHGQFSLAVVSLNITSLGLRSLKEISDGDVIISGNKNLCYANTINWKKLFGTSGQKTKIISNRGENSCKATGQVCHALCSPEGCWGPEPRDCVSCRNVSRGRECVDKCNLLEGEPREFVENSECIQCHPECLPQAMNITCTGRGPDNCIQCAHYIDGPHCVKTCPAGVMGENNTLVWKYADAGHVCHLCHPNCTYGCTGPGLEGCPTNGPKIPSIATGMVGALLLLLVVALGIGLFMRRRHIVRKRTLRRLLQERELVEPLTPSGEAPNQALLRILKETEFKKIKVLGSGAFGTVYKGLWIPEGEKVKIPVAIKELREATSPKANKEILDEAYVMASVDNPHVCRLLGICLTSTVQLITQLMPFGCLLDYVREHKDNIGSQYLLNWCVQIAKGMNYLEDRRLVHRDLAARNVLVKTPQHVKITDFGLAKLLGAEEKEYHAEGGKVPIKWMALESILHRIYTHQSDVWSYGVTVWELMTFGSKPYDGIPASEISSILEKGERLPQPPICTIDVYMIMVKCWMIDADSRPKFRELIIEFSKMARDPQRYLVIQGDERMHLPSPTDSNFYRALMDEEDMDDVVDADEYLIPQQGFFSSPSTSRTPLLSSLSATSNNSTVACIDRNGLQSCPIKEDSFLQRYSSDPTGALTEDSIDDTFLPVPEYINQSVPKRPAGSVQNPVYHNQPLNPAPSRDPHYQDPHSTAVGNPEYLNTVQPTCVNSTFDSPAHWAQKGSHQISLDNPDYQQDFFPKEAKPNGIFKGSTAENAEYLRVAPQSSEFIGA
- protocol notes: MSA (Mobility Shift Assay) kinase activity, EGFR wild type
- Assay type: biochemical
- condition label: read-out: EGFR wt/ IC50/nM
experimental readout: IC50 (nM)
Answers are plain numbers, in nM.

molecule: CC(C)c1ccc(N2CC(NS(C)(=O)=O)C2)c2cnc(Nc3ccnc(N4CCC(O)C(F)(F)C4)n3)cc12 (stereo not shown)
quantitative result: 18.1

For the 4 molecules below, give their IC50 values.
1. CC(C)c1ccc(N2CC(NS(=O)(=O)C3CC3)C2)c2cnc(Nc3ccnc(N4CCC(O)C(F)C4)n3)cc12 (stereo not shown)
2. CC(C)c1ccc(N2CC(NS(C)(=O)=O)C2)c2cnc(Nc3ccnc(N4CCC(C)(O)C(F)C4)n3)cc12 (stereo not shown)
3. CC(C)c1ccc(N2CC(NS(C)(=O)=O)C2)c2cnc(Nc3ccnc(N4CCC(O)C(C)(F)C4)n3)cc12 (stereo not shown) [Compound P45]
4. CC(C)c1ccc(N2CC(CS(C)(=O)=O)C2)c2cnc(Nc3ccnc(-c4cnn(S(=O)(=O)C5CCOCC5)c4)n3)cc12

Response:
1: 33.8; 2: 13.4; 3: 20.7; 4: 30.3

For the 2 molecules below, give their IC50 values.
1. CC(C)c1ccc(N2CC(CS(C)(=O)=O)C2)c2cnc(Nc3ccnc(-c4cnn(S(=O)(=O)N(C)C)c4)n3)cc12
2. COC1CCN(c2nccc(Nc3cc4c(cn3)c(N3CC(CS(C)(=O)=O)C3)cc(=O)n4C(C)C)n2)CC1F (stereo not shown)

Response:
1. 7.4
2. 41.2
